Test system: L1210 leukemia ip in BDF1 mice, survival T/C
assay_info: NCI In Vivo Anticancer Drug Screen. Data for tumor model L1210 Leukemia (intraperitoneal) in B6D2F1 (BDF1) mice
experimental_conditions: endpoint: mean survival time; dose: 100.0 mg/kg/injection; schedule: Q04DX003 (ip); vehicle: saline; higher = longer survival
Description: The antitumor activity of compounds was measured in mice bearing transplantable tumors. Survival or tumor size were measured and the results are expressed as the measurement made in the treated group (T) divided by the measurement made in the vehicle treated control group (C). The tumor model used in this assay is L1210 Leukemia (intraperitoneal) in B6D2F1 (BDF1) mice
Inconclusive results and toxic doses are left out.
endpoint_name: T/C

Request: Tell me the measured T/C of CNC(=O)CCN1CCN(CC/C=C2\c3ccccc3Sc3ccc(Cl)cc32)CC1 , please.
Response: 114 % of control

Request: O=C(Nc1cccc(C(F)(F)F)c1)C(O)C(O)C(O)C(O)CO (stereo unspecified)
Response: 91 % of control

Request: O=C(O)/C=C/C(=O)Nc1ccc2c(c1)C(NC(=O)/C=C/C(=O)O)c1ccccc1-2 (stereo unspecified)
Response: 100 % of control

Request: CSc1nnc(-c2ccncc2)s1
Response: 104 % of control

Request: CC(=O)OCc1ccc[nH]c1=O
Response: 104 % of control

Request: CC(NC(=O)OCc1ccccc1)C(=O)NC(CC(=O)O)C(=O)O (stereo unspecified)
Response: 97 % of control
